I'd be grateful if you could share measured EC50 for these entries.
# assayed.target: T1, human neonatal Fc receptor (hFcRn) (human, UniProt P55899 24-290; P61769 21-119)
# T1 construct: Biotinylated in the ELISA, Octet and yeast assays; also called human FcRn; huFcRn
# T1 sequence (P55899 24-290 limits assumed, chain 1 of 2): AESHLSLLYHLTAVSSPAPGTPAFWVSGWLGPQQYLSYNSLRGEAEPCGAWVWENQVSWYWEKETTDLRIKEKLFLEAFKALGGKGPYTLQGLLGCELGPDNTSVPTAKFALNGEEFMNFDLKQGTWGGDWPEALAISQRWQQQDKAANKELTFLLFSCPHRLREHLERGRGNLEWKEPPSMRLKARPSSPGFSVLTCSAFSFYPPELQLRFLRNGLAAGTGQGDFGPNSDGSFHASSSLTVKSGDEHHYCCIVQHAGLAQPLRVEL
# T1 sequence (P61769 21-119 limits assumed, chain 2 of 2): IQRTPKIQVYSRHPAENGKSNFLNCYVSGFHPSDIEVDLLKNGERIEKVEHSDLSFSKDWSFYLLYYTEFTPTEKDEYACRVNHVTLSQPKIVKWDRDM
# test.summary: SPR competition pH 5.5

Query block: Which EC50 is reported for this binder? variant Fc-fragment Fc-5-104 (other, soluble elsewhere) EPKSCDKTHTCPPCPAPELLGGPSVFLFPPKPKDTLMISRTPEVTCVVVDVSHEDPEVKFNWYVDGVEVHNAKTKPREEQYNSTYRVVSVLTVLHQDWLNGKEYKCKVSNKALPAPIEKTISKAKGQPREPQVYTLPPSRDELTKNQVSLTCLVKGFYPSDIAVEWESNGGCGHEYMWCGGGQPENNYKTTPPVLDSDGSFFLYSKLTVDKSRWQQGNVFSCSVMHEALHNHYTQKSLSLSPGK
Result block: 15 nM

Query block: Request: variant Fc-fragment Fc-5-99 (other, library L5 isolate) EPKSCDKTHTCPPCPAPELLGGPSVFLFPPKPKDTLMISRTPEVTCVVVDVSHEDPEVKFNWYVDGVEVHNAKTKPREEQYNSTYRVVSVLTVLHQDWLNGKEYKCKVSNKALPAPIEKTISKAKGQPREPQVYTLPPSRDELTKNQVSLTCLVKGFYPSDIAVEWESNGGCYITQKLCGGGQPENNYKTTPPVLDSDGSFFLYSKLTVDKSRWQQGNVFSCSVMHEALHNHYTQKSLSLSPGK
Result block: 15 nM

Query block: Request: variant Fc-fragment Fc-5-55 (other, library L5 isolate) EPKSCDKTHTCPPCPAPELLGGPSVFLFPPKPKDTLMISRTPEVTCVVVDVSHEDPEVKFNWYVDGVEVHNAKTKPREEQYNSTYRVVSVLTVLHQDWLNGKEYKCKVSNKALPAPIEKTISKAKGQPREPQVYTLPPSRDELTKNQVSLTCLVKGFYPSDIAVEWESNGGCMQVWGSCGGGQPENNYKTTPPVLDSDGSFFLYSKLTVDKSRWQQGNVFSCSVMHEALHNHYTQKSLSLSPGK
Result block: 49 nM

Hey, just so you know, these numbers are from patent US20140356358A1.
